Attribution: paper PMC10940605

TARGET OF ASSAY: topoisomerase IIα (Homo sapiens)
Sequence (P11388 whole entry): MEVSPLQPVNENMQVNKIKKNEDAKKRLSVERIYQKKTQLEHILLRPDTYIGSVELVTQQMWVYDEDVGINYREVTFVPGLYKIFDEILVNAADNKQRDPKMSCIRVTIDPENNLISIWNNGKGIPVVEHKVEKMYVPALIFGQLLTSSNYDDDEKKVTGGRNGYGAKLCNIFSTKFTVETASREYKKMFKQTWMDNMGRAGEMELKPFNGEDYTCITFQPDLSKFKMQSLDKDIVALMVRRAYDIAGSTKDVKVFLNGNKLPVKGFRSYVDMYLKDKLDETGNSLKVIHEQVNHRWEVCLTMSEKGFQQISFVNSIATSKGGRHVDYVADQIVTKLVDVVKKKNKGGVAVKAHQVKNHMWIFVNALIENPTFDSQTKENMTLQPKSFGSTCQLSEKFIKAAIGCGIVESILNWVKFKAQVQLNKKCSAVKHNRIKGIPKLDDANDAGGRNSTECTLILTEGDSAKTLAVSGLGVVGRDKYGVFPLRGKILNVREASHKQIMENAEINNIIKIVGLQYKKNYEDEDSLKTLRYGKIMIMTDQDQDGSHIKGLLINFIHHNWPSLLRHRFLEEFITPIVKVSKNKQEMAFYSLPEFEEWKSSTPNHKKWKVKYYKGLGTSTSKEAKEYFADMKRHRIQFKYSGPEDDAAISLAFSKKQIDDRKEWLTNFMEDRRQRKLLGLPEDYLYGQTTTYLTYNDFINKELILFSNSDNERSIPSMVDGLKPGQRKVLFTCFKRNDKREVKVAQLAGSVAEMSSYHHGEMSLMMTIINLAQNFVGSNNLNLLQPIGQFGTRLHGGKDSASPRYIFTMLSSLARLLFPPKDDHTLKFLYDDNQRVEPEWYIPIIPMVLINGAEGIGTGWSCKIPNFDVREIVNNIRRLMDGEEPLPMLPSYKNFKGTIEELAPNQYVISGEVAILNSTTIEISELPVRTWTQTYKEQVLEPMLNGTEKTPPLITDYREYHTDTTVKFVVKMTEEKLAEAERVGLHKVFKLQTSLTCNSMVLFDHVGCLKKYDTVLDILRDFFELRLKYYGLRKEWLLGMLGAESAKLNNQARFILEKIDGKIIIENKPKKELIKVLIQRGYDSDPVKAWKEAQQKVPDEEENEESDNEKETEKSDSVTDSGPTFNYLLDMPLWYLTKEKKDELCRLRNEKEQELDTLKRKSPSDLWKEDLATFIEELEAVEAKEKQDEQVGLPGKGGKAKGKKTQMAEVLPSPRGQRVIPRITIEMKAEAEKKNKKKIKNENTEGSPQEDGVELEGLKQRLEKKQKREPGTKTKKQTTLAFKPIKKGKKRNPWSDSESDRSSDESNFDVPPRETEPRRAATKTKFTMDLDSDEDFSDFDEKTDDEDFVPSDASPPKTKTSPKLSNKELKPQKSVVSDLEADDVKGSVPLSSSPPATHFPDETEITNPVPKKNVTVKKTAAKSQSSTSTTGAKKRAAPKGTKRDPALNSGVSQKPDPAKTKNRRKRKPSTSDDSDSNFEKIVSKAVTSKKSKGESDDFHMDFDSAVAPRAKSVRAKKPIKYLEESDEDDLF
Reported IC50 by item:
Form entry: value (µM) — number only.

[
  {
    "MOLECULE": "CCn1cc(C(=O)NN=Cc2ccccc2)c(=O)c2cc(F)c(N3CCNC(C)C3)c(F)c21 (centres unmarked) [Compound 3a]",
    "TARGET OF ASSAY": "topoisomerase IIα (Homo sapiens)",
    "IC50 [µM]": 1.74
  },
  {
    "MOLECULE": "CCn1cc(C(=O)NN=Cc2cccc(F)c2)c(=O)c2cc(F)c(N3CCNC(C)C3)c(F)c21 (centres unmarked) [Compound 3b]",
    "TARGET OF ASSAY": "topoisomerase IIα (Homo sapiens)",
    "IC50 [µM]": 2.41
  },
  {
    "MOLECULE": "COc1cccc2c1C(=O)c1c(O)c3c(c(O)c1C2=O)C[C@@](O)(C(=O)CO)C[C@@H]3O[C@H]1C[C@H](N)[C@H](O)[C@H](C)O1 [Doxorubicin, reference compound]",
    "TARGET OF ASSAY": "topoisomerase IIα (Homo sapiens)",
    "IC50 [µM]": 0.61
  },
  {
    "MOLECULE": "CCn1cc(C(=O)NN=Cc2ccc(Br)cc2)c(=O)c2cc(F)c(N3CCNC(C)C3)c(F)c21 (centres unmarked) [Compound 3c]",
    "TARGET OF ASSAY": "topoisomerase IIα (Homo sapiens)",
    "IC50 [µM]": 1.68
  }
]

Entry CCn1cc(C(=O)NN=Cc2cccs2)c(=O)c2cc(F)c(N3CCNC(C)C3)c(F)c21 (centres unmarked) [Compound 3e] : IC50 on topoisomerase IIα (Homo sapiens) = 0.98
